# target.desc: CDK12 (Homo sapiens, UniProt Q9NYV4)
# Sequence (Q9NYV4 whole entry, species assumed): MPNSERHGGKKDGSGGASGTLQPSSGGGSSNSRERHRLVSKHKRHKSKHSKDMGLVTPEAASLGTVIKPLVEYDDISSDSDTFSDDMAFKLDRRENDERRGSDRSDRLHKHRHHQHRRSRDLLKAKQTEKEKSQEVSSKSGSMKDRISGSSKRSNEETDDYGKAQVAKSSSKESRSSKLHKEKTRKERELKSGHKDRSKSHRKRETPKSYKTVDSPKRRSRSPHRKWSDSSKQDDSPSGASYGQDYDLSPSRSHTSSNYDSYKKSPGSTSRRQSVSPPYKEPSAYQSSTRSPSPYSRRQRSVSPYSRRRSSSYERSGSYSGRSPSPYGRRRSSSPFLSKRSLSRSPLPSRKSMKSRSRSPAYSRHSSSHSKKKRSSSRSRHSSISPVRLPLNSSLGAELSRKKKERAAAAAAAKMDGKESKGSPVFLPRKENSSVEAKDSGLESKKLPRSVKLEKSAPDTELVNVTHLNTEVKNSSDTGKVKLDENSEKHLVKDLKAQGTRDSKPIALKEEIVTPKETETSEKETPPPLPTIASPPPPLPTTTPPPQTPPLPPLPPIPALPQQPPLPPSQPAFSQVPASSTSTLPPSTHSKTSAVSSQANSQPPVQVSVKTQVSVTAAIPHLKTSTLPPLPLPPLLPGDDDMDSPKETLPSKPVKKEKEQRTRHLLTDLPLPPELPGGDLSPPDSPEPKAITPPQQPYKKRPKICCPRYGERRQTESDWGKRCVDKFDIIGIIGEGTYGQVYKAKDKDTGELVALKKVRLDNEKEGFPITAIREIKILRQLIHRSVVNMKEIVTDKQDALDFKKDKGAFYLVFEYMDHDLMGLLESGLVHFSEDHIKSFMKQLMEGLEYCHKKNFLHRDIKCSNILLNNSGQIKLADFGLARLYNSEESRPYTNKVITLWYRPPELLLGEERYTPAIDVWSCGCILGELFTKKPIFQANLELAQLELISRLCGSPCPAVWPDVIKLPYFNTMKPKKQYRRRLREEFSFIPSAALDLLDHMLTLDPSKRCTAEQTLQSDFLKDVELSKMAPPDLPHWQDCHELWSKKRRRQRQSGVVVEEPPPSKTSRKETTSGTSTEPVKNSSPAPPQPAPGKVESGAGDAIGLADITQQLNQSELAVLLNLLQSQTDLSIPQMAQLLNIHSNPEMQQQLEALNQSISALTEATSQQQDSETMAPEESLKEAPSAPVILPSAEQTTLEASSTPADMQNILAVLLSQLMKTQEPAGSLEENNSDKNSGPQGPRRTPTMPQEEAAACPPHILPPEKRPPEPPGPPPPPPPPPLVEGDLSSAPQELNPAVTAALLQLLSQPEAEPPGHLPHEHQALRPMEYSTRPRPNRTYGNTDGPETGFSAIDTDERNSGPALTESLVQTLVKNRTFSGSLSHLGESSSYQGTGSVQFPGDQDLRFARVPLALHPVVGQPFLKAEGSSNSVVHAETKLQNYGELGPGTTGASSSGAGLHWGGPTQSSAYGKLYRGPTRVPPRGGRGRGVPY
# Sequence (O75909 whole entry partner, species assumed): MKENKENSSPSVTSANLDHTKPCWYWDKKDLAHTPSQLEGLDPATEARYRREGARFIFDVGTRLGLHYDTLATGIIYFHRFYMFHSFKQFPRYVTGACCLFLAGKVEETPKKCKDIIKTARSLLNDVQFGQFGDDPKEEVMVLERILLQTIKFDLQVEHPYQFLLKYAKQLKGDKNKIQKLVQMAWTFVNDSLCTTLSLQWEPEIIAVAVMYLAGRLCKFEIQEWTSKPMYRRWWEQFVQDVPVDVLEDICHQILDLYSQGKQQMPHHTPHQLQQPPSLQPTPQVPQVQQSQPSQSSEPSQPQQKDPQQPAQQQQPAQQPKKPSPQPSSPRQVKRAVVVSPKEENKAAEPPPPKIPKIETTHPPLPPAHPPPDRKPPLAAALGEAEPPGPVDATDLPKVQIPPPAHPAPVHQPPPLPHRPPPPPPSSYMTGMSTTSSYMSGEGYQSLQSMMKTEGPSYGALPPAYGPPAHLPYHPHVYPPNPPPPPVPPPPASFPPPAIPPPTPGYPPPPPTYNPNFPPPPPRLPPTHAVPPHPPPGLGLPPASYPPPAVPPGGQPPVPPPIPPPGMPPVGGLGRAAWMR
# protocol.description: Cellular CDK12 inhibitory activity assay (Ser2 phosphorylation of RNA polymerase II subunit B1 CTD in MDA-MB-231 cells)
# Format: cell-based
# Design: using MDA-MB-231 breast cancer cells; endogenous in cells; host or cells: MDA-MB-231
# details: MDA-MB-231 cells, 6 hours treatment; read-out: pRpbl CTD S2 IC50
reported.endpoint: IC50

FC(F)(F)c1cc2nc(CNc3cc(N4CCOCC4)nn4c(C(F)(F)F)cnc34)[nH]c2cc1C(F)(F)F; 0.3 to 3 µM
CN1C2CC1CN(c1cc(NCc3nc4cc(Cl)c(Cl)cc4[nH]3)c3ncc(C(F)(F)F)n3n1)C2; < 0.3 µM
Cc1cc(C)n2cc(CNc3cc(N4CCOCC4)nn4c(C(F)(F)F)cnc34)nc2n1; 0.3 to 3 µM
OC1(C2CN(c3cc(NCc4nc5cc(Cl)c(Cl)cc5[nH]4)c4ncc(C(F)(F)F)n4n3)C2)CC1; 0.3 to 3 µM
Fc1ccc2nc(CNc3cc(N4CC5CCC(C4)N5)nn4c(C(F)(F)F)cnc34)[nH]c2c1F; < 0.3 µM
CN1CCN(c2cc(NCc3nc4cc(F)c(F)cc4[nH]3)c3ncc(C(F)(F)F)n3n2)CC1; < 0.3 µM
FC(F)(F)c1cnc2c(NCc3nc4cc(Cl)c(Cl)cc4[nH]3)cc(N3CC4CCC(C3)N4)nn12; < 0.3 µM

----------
Quick list: pIC50 per entry.
# System: MDA-MB-231 breast cancer cells
# protocol.description: Proliferation inhibitory activity assay against MDA-MB-231 breast cancer cells
# Type: cell-based
# details: Homo sapiens, 72 hours, CellTiter Glo, relative IC50
pIC50: −log10 of the molar value.
reported.endpoint: pIC50

Cc1cc2[nH]c(CNc3cc(N4CCOCC4)nn4c(C(F)(F)F)cnc34)nc2cc1Cl; ≥ 7.30
Fc1ccc2nc(CNc3cc(N4CCN(C5CC5)CC4)nn4c(C(F)(F)F)cnc34)[nH]c2c1F; 6.30 to 7.30
FC(F)(F)c1cnc2c(NCc3nc4cc(Cl)c(Cl)cc4[nH]3)cc(N3CC4CCC(C3)N4)nn12; ≥ 7.30
C[C@@H]1CN(c2cc(NCc3nc4cc(Cl)c(Cl)cc4[nH]3)c3ncc(C(F)(F)F)n3n2)C[C@H](C)N1; ≥ 7.30
CC1(O)CCN(c2cc(NCc3nc4cc(Cl)c(Cl)cc4[nH]3)c3ncc(C(F)(F)F)n3n2)CC1; ≥ 7.30
CN1CC2CCC(C1)N2c1cc(NCc2nc3ccc(F)c(F)c3[nH]2)c2ncc(C(F)(F)F)n2n1; ≥ 7.30
N#CC1CN(c2cc(NCc3nc4ccc(Cl)c(Cl)c4[nH]3)c3ncc(C(F)(F)F)n3n2)C1; 6.30 to 7.30
NC1CN(c2cc(NCc3nc4cc(Cl)c(Cl)cc4[nH]3)c3ncc(C(F)(F)F)n3n2)C1; ≥ 7.30
FC(F)(F)c1cnc2c(NCc3nc4cc(Cl)c(Cl)cc4[nH]3)cc(N3CC4CC(C3)N4)nn12; ≥ 7.30
Cc1cc2nc(CNc3cc(N4CCOCC4)nn4c(C(F)(F)F)cnc34)[nH]c2cc1C; ≥ 7.30
COc1cccc2[nH]c(CNc3cc(N4CCOCC4)nn4c(C(F)(F)F)cnc34)nc12; ≥ 7.30
OCC1CN(c2cc(NCc3nc4cc(Cl)c(Cl)cc4[nH]3)c3ncc(C(F)(F)F)n3n2)C1; 6.30 to 7.30
